Reference source for all entries: BindingDB's records for patent US8748618

Molecular target: Core-binding factor subunit beta (Homo sapiens)
Test: FRET Assay
assay_metric: IC50 (nM)
Just the number in nM, nothing appended.

Short answer please: IC50, Core-binding factor subunit beta (Homo sapiens), entry COCCOc1ccc(-c2nc3ccc(OC(F)(F)F)cc3[nH]2)nc1
2300

Let us now turn to c1ccc(-c2nc3cc(-n4ccnc4)ccc3[nH]2)nc1
3400

Again, but for Fc1cc2nc(-c3ccccn3)[nH]c2cc1F
2500

* * *

Target: Core-binding factor subunit beta (Homo sapiens, UniProt Q13951)
Sequence (Q13951 whole entry): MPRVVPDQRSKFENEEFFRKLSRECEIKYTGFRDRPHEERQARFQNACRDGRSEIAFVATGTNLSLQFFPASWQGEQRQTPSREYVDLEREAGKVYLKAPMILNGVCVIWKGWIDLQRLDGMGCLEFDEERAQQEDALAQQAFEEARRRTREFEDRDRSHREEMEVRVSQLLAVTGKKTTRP
Assay: FRET Assay
Assign pIC50 to each entry below.
As a rule, pIC50 stands for the negative log10 of the concentration, concentration in M.

Fill in: pIC50 of Cc1cc2nc(-c3ccccn3)[nH]c2cc1C [US8748618, LD-1-37] is ___
5.70

And Cc1ccc2[nH]c(-c3ccccn3)nc2c1C [US8748618, LD-1-23] ?
5.37

And what about the compound FC(F)(F)c1ccc2[nH]c(-c3ccccn3)nc2c1 [US8748618, LD-2-23] ?
5.96

Could you do the same for Oc1ccc2nc(-c3ccccn3)[nH]c2c1 [US8748618, AI-10-61] , please?
5.60

Param item: Fc1cc2[nH]c(-c3ccccn3)nc2c(F)c1F [US8748618, AI-4-43]
5.85

Item: CC(C)Oc1ccc2[nH]c(-c3ccccn3)nc2c1 [US8748618, AI-4-70 (or) LD-2-21]
5.85

Try COc1cccc2[nH]c(-c3ccccn3)nc12 [US8748618, AI-4-52] next.
5.26

Same lookup for Fc1ccc2[nH]c(-c3ccccn3)nc2c1 [US8748618, LD-1-31] , please.
5.60

Would you kindly repeat that for Clc1ccc2nc(-c3ccccn3)[nH]c2c1 [US8748618, LD-2-79] ?
5.64

Same lookup for FC(F)(F)c1cc(Cl)c2[nH]c(-c3ccccn3)nc2c1 [US8748618, AI-4-48] , please.
6.12

What do you get for Fc1cccnc1-c1nc2ccc(OC(F)(F)F)cc2[nH]1 [US8748618, AI-10-65] ?
4.66

Another compound to check: CCOc1cccc2[nH]c(-c3ccccn3)nc12 [US8748618, AI-4-42]
5.38

What would you report for Cc1cccc2[nH]c(-c3ccccn3)nc12 [US8748618, AI-4-46] ?
5.28

Same again, this time with CS(=O)(=O)c1ccc2nc(-c3ccccn3)[nH]c2c1 [US8748618, AI-10-37]
5.48

Next: FC(F)(F)Oc1ccc2[nH]c(-c3ccccn3)nc2c1 [US8748618, AI-10-47]
6.00

Would you mind doing CCOc1ccc2[nH]c(-c3ccccn3)nc2c1 [US8748618, LD-1-29 (or) AI-10-54] as well?
5.82

And for Cc1ccc2[nH]c(-c3ccccn3)nc2c1 [US8748618, LD-2-11] ?
5.54

Okay, and c1ccc(-c2nc3ccc(N4CCOCC4)cc3[nH]2)nc1 [US8748618, AI-10-3] ?
6.00

How about Clc1cc(Cl)c2nc(-c3ccccn3)[nH]c2c1 [US8748618, AI-4-49] ?
6.15
